- tgt: UniProtKB P08482
- Sequence (P08482 1-460): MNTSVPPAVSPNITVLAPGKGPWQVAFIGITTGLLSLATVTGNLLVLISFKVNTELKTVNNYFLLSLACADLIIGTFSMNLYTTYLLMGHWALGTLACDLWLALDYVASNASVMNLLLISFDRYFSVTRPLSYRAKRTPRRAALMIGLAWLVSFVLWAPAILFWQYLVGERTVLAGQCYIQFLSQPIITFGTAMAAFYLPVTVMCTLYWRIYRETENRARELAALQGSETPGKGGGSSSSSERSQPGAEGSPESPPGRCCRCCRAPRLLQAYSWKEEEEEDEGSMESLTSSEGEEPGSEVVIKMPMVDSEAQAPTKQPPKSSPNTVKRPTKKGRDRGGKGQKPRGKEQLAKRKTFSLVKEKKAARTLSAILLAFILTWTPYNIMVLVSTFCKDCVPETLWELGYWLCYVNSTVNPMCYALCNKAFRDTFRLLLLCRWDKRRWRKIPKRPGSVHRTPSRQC
- assay.method.text: Calcium mobilization, rM1-CHO cells, agonist mode
- Format: cell-based

molecule: Cn1cc(-c2ccc(Cn3cc(C(=O)N[C@H]4CCCC[C@@H]4O)c4c(F)cc(F)cc43)cn2)cn1 [Compound 28a]
EC50: 3.98 µM
